The reported measurements were obtained from PubChem BioAssay (NCI).

TGI: recorded values
- Tested on: K-562 leukemia
- Test Summary: NCI tumour cell line growth inhibition, 48 h

- Compound: "C[C@H](O)CNc1cc(-c2[nH]c3cccnc3c2-c2ccc(F)cc2)ccn1"
  TGI: "> 25 µM"
- Compound: "COP1(=O)OCc2cnccc2O1 (configuration not stated)"
  TGI: "> 100 µM"
- Compound: "C=C(CN(C)C)C(=O)c1ccc(OC2OC(COC(C)=O)C(OC(C)=O)C(OC(C)=O)C2OC(C)=O)cc1 (configuration not stated)"
  TGI: "0.474 µM"
- Compound: "Cc1coc2c1[C@@H](O)[C@@]1(C)[C@H](CCC[C@@H]1C)C2"
  TGI: "74.7 µM"
- Compound: "CN(C)C=Nc1ccc2nonc2c1"
  TGI: "> 100 µM"
- Compound: "Clc1ccc(Nc2nn3c(CCCCCCCCc4nnc5sc(Nc6ccc(Cl)cc6)nn45)nnc3s2)cc1"
  TGI: "> 100 µM"
- Compound: "Cc1cccc(-c2nnc3s/c(=C\\c4ccc5c(c4)OCO5)c(=O)n23)c1"
  TGI: "> 100 µM"
